Taken from patent US20150147767A1.

Measured target: surface of J774 A1 macrophages (BAG3 binding partner not identified) (murine)
Protocol details: flow cytometry competition on J774 A1 cells; 625 nM peptide, 14 nM FITC-rBAG3 as competitor
Measured % inhibition of individual entries
Give the value in % but do not write % after it.

- Binder: "DKGKKNAGNAEDPHT [BAG3 peptide 3]"
  % inhibition (%): 47.2
- Binder: "NPSSMTDTPGNPAAP [BAG3 peptide 4]"
  % inhibition (%): 93.8

**Query** // % inhibition lookup, key: SSPKSVATEERAAPS [BAG3 peptide 2]
**Result** 89.1

**Query** // % inhibition lookup, key: DRDPLPPGWEIKIDPQ [BAG3 peptide 1]
**Result** 98.4
